assayInfo: JC-1 mitochondrial signal, unstimulated HepG2 cells – cell-based, JC-1 fluorescence, 24 h, 100 nL compound, profiling panel (AID 1167); note: test concentration not given here
measurementConditions: HepG2 mitochondrial potential, higher = more signal
attributeMeasured: z-score
Quick one: just the number, no unit, thanks!

COCCOC(=O)N1C(=O)[C@@]2(c3cc(C#Cc4ccc(OC)cc4)ccc31)[C@H](c1ccc(O)cc1)N1[C@H](c3ccccc3)[C@H](c3ccccc3)OC(=O)[C@H]1[C@@H]2C(=O)Nc1nc2ccccc2s1 | -2.51
COc1ccc([Si](C)(C)[C@@H]2[C@@H](CCO)O[C@]3(C(=O)N(Cc4cccc(N5CCOC5=O)c4)c4ccccc43)[C@H]2C)cc1 | 0.183
COC(=O)c1c(CC[C@@H](CO)NC(=O)N[C@H](Cc2ccccc2)Cn2cc(-c3ccccn3)nn2)oc(C(C)=O)c1C(=O)OC | -0.607
CN(C)CCCC[C@@H]1NC(=O)[C@H]2C[C@@H](C(=O)NCCCCCN)[C@@H](c3cccc(OCCO)c3)N2C1=O | 1.28
COC(=O)[C@@]1(Cc2ccc(F)cc2)[C@H]2c3cc(C(=O)N(C)C)n(Cc4ccc(C)o4)c3C[C@H]2CN1C(=O)c1ccccc1 | 0.0211

Briefly, z-score measured for COC(=O)c1c2oc(c1C(=O)OC)C(=O)NC1(CCCCC1)c1cn(nn1)C[C@H](Cc1ccccc1)NC(=O)N[C@H](CO)CC2 : 0.537

Briefly, z-score measured for CCCC1(C(=O)OC)C=C2C(=C(c3ccccc3)C(=O)C2C)CN1 (stereo not given) : 0.0027

Briefly, z-score measured for NC(=O)[C@@H]1[C@H]2C(=O)O[C@H](c3ccccc3)[C@H](c3ccccc3)N2[C@H](c2ccc(O)cc2)[C@@]12C(=O)Nc1ccc(C#CC3=CCCCC3)cc12 : -3.59

Briefly, z-score measured for CC(C)C(=C=CC[C@H](O)c1ccc(CO)o1)CCO : -0.427

Briefly, z-score measured for CCCCCCc1nc(-c2ccc(-c3ccc(Cl)c(Cl)c3)o2)c(C)c2c1[Si](C(C)C)(C(C)C)OC2 : -3.26

----------
assayInfo: hepatitis C replication reporter changes, two-sided – Huh7 cells, luciferase reporter, HCV replication inhibitor project, primary screen (AID 1109);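 note: huh7 hepatoma cells harbouring a luciferase neomycin HCV replicon reporter; luciferase luminescence as measure of HCV replicon replication; test concentration not given here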
measurementConditions: Huh7 HCV replicon luciferase reporter, 48 h; higher = more signal
attributeMeasured: z-score
Quick one: just the number, no unit, thanks!

Here's what some known entries look like.
C=CCN1Cc2ccccc2[C@@H]2OC(c3ccc(OCCCO)cc3)=N[C@]2(CCS(=O)(=O)c2ccccc2)C1=O | -1.48
COc1ccc([Si](C)(C)[C@H]2[C@H](CC(=O)N3CCC[C@H]3CO)O[C@@]3(C(=O)N(Cc4cccc(N5CCOC5=O)c4)c4ccccc43)[C@@H]2C)cc1 | -2.44
COC(=O)[C@@]1(CCC(=O)OC(C)(C)C)N=C(c2ccc(OCCCO)cc2)O[C@H]1c1ccccc1 | -1.79
COC(=O)C[C@H]1O[C@@H](CCc2ccccc2)[C@@H](C)[C@@H]1[Si](C)(C)c1ccc(OC)cc1 | -0.638
CO[C@H]1O[C@H](CO)[C@@H](OC(=O)Nc2ccc(Oc3ccccc3)cc2)[C@H](OC(=O)Nc2ccc3c(c2)OCO3)[C@@H]1OC(=O)Nc1ccc2c(c1)OCO2 | 0.166

Briefly, z-score measured for COc1cc2c(cc1O)C(c1cccs1)N(Cc1cccc(OC(F)(F)F)c1)CC2 (stereo not drawn) : -1.75

Briefly, z-score measured for O=C1OCCC=C[C@H]2OC34C=CCN(Cn5nnc6ccccc65)C(=O)[C@H]3N(CCO)C(=O)[C@@H]4C12 (stereo partly drawn) : -0.772

Briefly, z-score measured for C=CC[C@]1(C(=O)N2CCOCC2)N=C(c2ccc(OCCCO)cc2)O[C@H]1c1ccccc1N=[N+]=[N-] : -1.43

Briefly, z-score measured for O=C1O[C@H](c2ccccc2)[C@H](c2ccccc2)N2[C@H]1[C@@H](C(=O)NC[C@H](O)c1ccccc1)[C@]1(C(=O)Nc3ccccc31)[C@H]2c1ccc(O)cc1 : -0.705

Briefly, z-score measured for O=C(NC1CC1)[C@@H]1c2ccccc2C(=O)N(C2Cc3ccccc3C2)[C@H]1c1ccc(CO)cc1 : -0.865

Briefly, z-score measured for C=CC[C@]1(C(=O)NCc2ccccc2)N=C(c2ccc(OCCCO)cc2)O[C@H]1c1ccccc1CN=[N+]=[N-] : -2.42

Briefly, z-score measured for O=C1OCCC/C=C\[C@H]2OC34C=CCN(c5ccc6ccccc6c5)C(=O)[C@H]3N(CCCCCO)C(=O)[C@@H]4C12 (stereo partly drawn) : -0.57

Briefly, z-score measured for C=C(CCCC)/C(=C/C[C@@H](OC(C)=O)c1ccccc1OCCO)c1cc(C(=O)OC)ccc1OC : -2.13

Briefly, z-score measured for CCOC(=O)C[C@H]1[C@H](OC(=O)c2ccc(-c3ccccc3)cc2)[C@@H](NC(=O)c2ccccc2)c2cc(OCCCO)ccc2N1C(=O)Cc1ccc(OC)cc1 : -1.41

Briefly, z-score measured for CC1CC/C=C\[C@H]2OC34C=CCN(c5ccc6ccccc6c5)C(=O)[C@H]3N(CCO)C(=O)[C@@H]4C2C(=O)O1 (stereo partly drawn) : -0.626

Briefly, z-score measured for [N-]=[N+]=Nc1ccccc1C[C@]1(C(=O)NCc2ccccc2)N=C(c2ccc(OCCCO)cc2)O[C@H]1c1ccccc1N=[N+]=[N-] : -2.34

Briefly, z-score measured for COCCOC(=O)N1C(=O)[C@@]2(c3ccccc31)[C@H](C(=O)N1CCCCCCC1)[C@H]1C(=O)O[C@H](c3ccccc3)[C@H](c3ccccc3)N1[C@@H]2c1ccc(OCCO)cc1 : -2.07

Briefly, z-score measured for C=C(CCCC)/C(=C/C[C@@H](OC(C)=O)c1cccc(OCCO)c1)c1cnc2ccccc2c1 : -1.32
